- systemName: T1, human MSLN-R2-his protein (human, UniProt Q13421 391-486)
- T1 construct: Region 2 of human mesothelin, made in HEK293E cells, His-tagged; also called human MSLN-R2 protein; hMSLN-R2-his; not shown: His tag
- T1 sequence (Q13421 other isoform, or with tags, fused parts or gaps): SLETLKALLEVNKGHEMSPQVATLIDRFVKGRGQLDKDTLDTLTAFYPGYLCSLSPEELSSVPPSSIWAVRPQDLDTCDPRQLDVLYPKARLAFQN
- protocolNotes: ELISA on coated MSLN-R2; no antibody (blank)
attributeMeasured: OD450 (OD450)
Enter your answer as a number in OD450; do not include the unit.

S009-F8-28.23 (antibody, human IgG1, kappa, V domains shown) VH: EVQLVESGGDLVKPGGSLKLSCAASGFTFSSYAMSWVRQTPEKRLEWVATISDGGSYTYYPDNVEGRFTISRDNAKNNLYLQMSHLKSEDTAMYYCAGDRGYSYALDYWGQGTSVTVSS VL: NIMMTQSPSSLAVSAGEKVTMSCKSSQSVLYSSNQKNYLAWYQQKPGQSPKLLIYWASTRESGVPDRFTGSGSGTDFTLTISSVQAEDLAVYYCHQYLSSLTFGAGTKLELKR | 0.04
S009-F8-7.5 (antibody, human IgG1, kappa, V domains shown) VH: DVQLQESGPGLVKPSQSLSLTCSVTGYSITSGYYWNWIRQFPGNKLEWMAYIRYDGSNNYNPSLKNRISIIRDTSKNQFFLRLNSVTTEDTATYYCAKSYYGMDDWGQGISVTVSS VL: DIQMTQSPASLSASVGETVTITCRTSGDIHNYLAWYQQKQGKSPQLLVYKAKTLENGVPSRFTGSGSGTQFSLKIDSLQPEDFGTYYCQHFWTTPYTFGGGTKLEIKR | 0.05

Next up:
Report OD450 for Tab106 (YP218, hIgG1) (antibody, V domains shown, also called YP218 human IgG1 antibody) VH: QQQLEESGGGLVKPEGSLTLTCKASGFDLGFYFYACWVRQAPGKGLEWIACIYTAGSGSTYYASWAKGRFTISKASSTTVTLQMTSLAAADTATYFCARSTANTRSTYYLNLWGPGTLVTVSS VL: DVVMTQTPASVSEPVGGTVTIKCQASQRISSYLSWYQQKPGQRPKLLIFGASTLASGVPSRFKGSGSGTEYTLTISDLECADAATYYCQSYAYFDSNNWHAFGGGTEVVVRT 0.04
